biological target: APAT (acetyl-coenzyme A pregnenolone acetyltransferase) (Saccharomyces cerevisiae); construct: the semi-purified APAT transfers the acetate on 3β-ol, delta^4 or delta^5-steroids; endogenous in cells; host or cells: S. cerevisiae strain TGY73.4; endogenous enzyme purified in house from cell lysate (ZnCl2 precipitation, DEAE-Sephacel, Phenyl-Sepharose, Q-Sepharose, cholate-Sepharose); test: Test of APAT enzyme activity (semi-purified APAT; substrate specificity and inhibition); assay type: biochemical, S. cerevisiae; details: 100 μM of each acyl donor and 30 μM of [3H]pregnenolone; semi-purified APAT
Sequence (P53296 whole entry): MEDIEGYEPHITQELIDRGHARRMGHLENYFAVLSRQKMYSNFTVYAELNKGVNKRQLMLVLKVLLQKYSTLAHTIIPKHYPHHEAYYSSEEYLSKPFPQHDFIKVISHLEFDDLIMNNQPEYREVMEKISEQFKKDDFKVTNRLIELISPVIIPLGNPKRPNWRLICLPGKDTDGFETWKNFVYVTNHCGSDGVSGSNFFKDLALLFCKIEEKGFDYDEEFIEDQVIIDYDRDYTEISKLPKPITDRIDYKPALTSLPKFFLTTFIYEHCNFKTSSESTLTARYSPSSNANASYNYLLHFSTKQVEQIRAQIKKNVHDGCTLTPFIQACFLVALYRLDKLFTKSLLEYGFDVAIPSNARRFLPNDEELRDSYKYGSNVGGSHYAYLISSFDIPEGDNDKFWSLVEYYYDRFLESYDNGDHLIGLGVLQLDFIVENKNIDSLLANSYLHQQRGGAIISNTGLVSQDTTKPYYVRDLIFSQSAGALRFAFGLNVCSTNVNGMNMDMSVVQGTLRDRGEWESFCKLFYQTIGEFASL
Property name: Relative activity (%), Substrate b)

>>> numeric_result("CCC(=O)SCCNC(=O)CCNC(=O)[C@H](O)C(C)(C)COP(=O)(O)OP(=O)(O)OC[C@H]1O[C@@H](n2cnc3c(N)ncnc32)[C@H](O)[C@@H]1OP(=O)(O)O")
33
>>> numeric_result("CCCCCC(=O)SCCNC(=O)CCNC(=O)[C@H](O)C(C)(C)COP(=O)(O)OP(=O)(O)OC[C@H]1O[C@@H](n2cnc3c(N)ncnc32)[C@H](O)[C@@H]1OP(=O)(O)O")
18
>>> numeric_result("CCCC(=O)SCCNC(=O)CCNC(=O)[C@H](O)C(C)(C)COP(=O)(O)OP(=O)(O)OC[C@H]1O[C@@H](n2cnc3c(N)ncnc32)[C@H](O)[C@@H]1OP(=O)(O)O")
16
